src = PubChem BioAssay AID1963864

- System: KRAS PDC multicell spheroid viability
- test-details: Anticancer human tumor 521955-158-R6-J3-PDC patient-derived pancreatic carcinoma cell line growth inhibition [KRAS2]
- study-conditions: curve of first compound; second compound 10 µM
pIC50: −log10 of the molar value.
This section presents molecules with their documented pIC50 values.

1. Cn1ncnc1[C@H]1c2n[nH]c(=O)c3cc(F)cc(c23)N[C@@H]1c1ccc(F)cc1 + COc1cc2nc(C)nc(NC(C)c3cc(N)cc(C(F)(F)F)c3)c2cc1OC1CCOC1 ... > 9.50

Report pIC50 from KRAS PDC multicell spheroid viability testing of Cn1ncnc1[C@H]1c2n[nH]c(=O)c3cc(F)cc(c23)N[C@@H]1c1ccc(F)cc1 + CNCc1ccccc1-c1csc(C(C)Nc2nc(C)nc3cc(OC)c(OC)cc23)c1
> 9.50

Report pIC50 from KRAS PDC multicell spheroid viability testing of O=C(c1cc(Cc2n[nH]c(=O)c3ccccc23)ccc1F)N1CCN(C(=O)C2CC2)CC1 + COc1cc2nc(C)nc(NC(C)c3cc(N)cc(C(F)(F)F)c3)c2cc1OC1CCOC1
< 5.00

###

- Test system: KRAS PDC multicell spheroid viability
- test-details: Anticancer human tumor 521955-158-R6-J3-PDC cell line growth inhibition [KRAS2];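 also: drug exposure lasted seven days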
- study-conditions: curve of first compound; second compound 0.1 µM
This section presents compounds with their documented IC50 values.

1) CCN1CCN(Cc2ccc(Nc3ncc(F)c(-c4cc(F)c5nc(C)n(C(C)C)c5c4)n3)nc2)CC1 + C=CC(=O)N1CCN(c2nc(OCC3CCCN3C)nc3c2CCN(c2cccc4cccc(C)c24)C3)CC1CC#N ... > 1 µM

Determine from records and report IC50 for CN(C)C/C=C/C(=O)Nc1cc2c(Nc3ccc(F)c(Cl)c3)ncnc2cc1O[C@H]1CCOC1 + C=CC(=O)N1CCN(c2nc(=O)n(-c3c(C)ccnc3C(C)C)c3nc(-c4c(O)cccc4F)c(F)cc23)C(C)C1
> 0.1 µM

Determine from records and report IC50 for CCN1CCN(Cc2ccc(Nc3ncc(F)c(-c4cc(F)c5nc(C)n(C(C)C)c5c4)n3)nc2)CC1 + CNCc1ccccc1-c1csc(C(C)Nc2nc(C)nc3cc(OC)c(OC)cc23)c1
> 1 µM

Determine from records and report IC50 for CN(C)C/C=C/C(=O)Nc1cc2c(Nc3ccc(F)c(Cl)c3)ncnc2cc1O[C@H]1CCOC1 + CNCc1ccccc1-c1csc(C(C)Nc2nc(C)nc3cc(OC)c(OC)cc23)c1
> 0.1 µM

Determine from records and report IC50 for O=C(c1cc(Cc2n[nH]c(=O)c3ccccc23)ccc1F)N1CCN(C(=O)C2CC2)CC1 + C=CC(=O)N1CCN(c2nc(OCC3CCCN3C)nc3c2CCN(c2cccc4cccc(C)c24)C3)CC1CC#N
> 10 µM

Determine from records and report IC50 for CC(C)NCC(C(=O)N1CCN(c2ncnc3c2C(C)CC3O)CC1)c1ccc(Cl)cc1 (stereo unspecified) + C=CC(=O)N1CCN(c2nc(OCC3CCCN3C)nc3c2CCN(c2cccc4cccc(C)c24)C3)CC1CC#N
> 10 µM

###

This section presents molecules with their documented viability, T/C values.
- Test system: KRAS PDC multicell spheroid viability
- test-details: Anticancer human tumor 521955-158-R6-J3-PDC cell line growth inhibition [KRAS2];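 also: drug exposure lasted seven days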;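 as to viability, T/C: 100% = DMSO vehicle wells and lower means fewer viable cells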
- study-conditions: second compound 0.316 µM; first compound 0.316 µM; stronger effect = lower value
Express your answer in %, writing the number without its unit.

Below are worked cases with known answers.
1) CC1COCCN1c1cc(-c2ccnn2C)c2ccnc(-c3ccn[nH]3)c2n1 (stereo not drawn) + CC1OCC2(CCN(c3cnc(Sc4ccnc(N)c4Cl)c(N)n3)CC2)C1N ... 64.3
2) CCNC(=O)CC1N=C(c2ccc(Cl)cc2)c2cc(OC)ccc2-n2c(C)nnc21 (stereo not drawn) + COc1cc2nc(C)nc(NC(C)c3cc(N)cc(C(F)(F)F)c3)c2cc1OC1CCOC1 ... 76.3

Report viability, T/C from KRAS PDC multicell spheroid viability testing of COc1cc2nccc(Oc3ccc(NC(=O)C4(C(=O)Nc5ccc(F)cc5)CC4)cc3)c2cc1OC + CC1OCC2(CCN(c3cnc(Sc4ccnc(N)c4Cl)c(N)n3)CC2)C1N
89.3
